Provenance of the data: patent US9878033B2

Test system: HSV-1 infected or VVgB-infected monocyte-derived dendritic cells
Assay: CD107 cytotoxicity assay
Type: cell-based, human
Conditions: after incubation with HSV-1 infected or VVgB-infected target dendritic cells
Residues, ends and D or L forms follow the SMILES beside them.
VALUE_TYPE: epitope-specific CD8+ T cells expressing CD107a/b

- CC[C@H](C)[C@H](NC(=O)[C@H](CC(C)C)NC(=O)[C@H](Cc1ccccc1)NC(=O)CNC(=O)CNC(=O)[C@H](CC(N)=O)NC(=O)[C@H](C)NC(=O)[C@H](CC(C)C)NC(=O)[C@@H](N)Cc1ccc(O)cc1)C(=O)O: very few
- CC(C)C[C@H](NC(=O)[C@H](CC(C)C)NC(=O)[C@@H](N)CC(N)=O)C(=O)N[C@H](C(=O)N[C@H](C(=O)N1CCC[C@H]1C(=O)N[C@@H](CCCCN)C(=O)N[C@@H](Cc1ccccc1)C(=O)N[C@H](C(=O)O)[C@@H](C)O)[C@@H](C)O)[C@@H](C)O [gB342-350] (H-NLLTTPKFT-OH; N-terminus and C-terminus assumed): high percentage
- CC[C@H](C)[C@H](NC(=O)CN)C(=O)N[C@@H](Cc1ccccc1)C(=O)N[C@@H](CCC(=O)O)C(=O)N[C@@H](CC(=O)O)C(=O)N[C@@H](CCCNC(=N)N)C(=O)N[C@@H](C)C(=O)N1CCC[C@H]1C(=O)N[C@H](C(=O)O)C(C)C [gB183-191] (H-GIFEDRAPV-OH; N-terminus and C-terminus assumed): very few
- CSCC[C@H](NC(=O)[C@@H](NC(=O)[C@H](CC(=O)O)NC(=O)CNC(=O)[C@H](CC(C)C)NC(=O)[C@H](CCSC)NC(=O)[C@@H](N)CCCNC(=N)N)C(C)C)C(=O)N[C@@H](C)C(=O)N[C@H](C(=O)O)C(C)C: high percentage
